The binders listed here are annotated with their pKd.
# ASSAYED_SYSTEM: T1, human KDR-Fc chimeric fusion (R&D Systems #357-KD-05) (human, UniProt P35968 20-764)
# T1 chain: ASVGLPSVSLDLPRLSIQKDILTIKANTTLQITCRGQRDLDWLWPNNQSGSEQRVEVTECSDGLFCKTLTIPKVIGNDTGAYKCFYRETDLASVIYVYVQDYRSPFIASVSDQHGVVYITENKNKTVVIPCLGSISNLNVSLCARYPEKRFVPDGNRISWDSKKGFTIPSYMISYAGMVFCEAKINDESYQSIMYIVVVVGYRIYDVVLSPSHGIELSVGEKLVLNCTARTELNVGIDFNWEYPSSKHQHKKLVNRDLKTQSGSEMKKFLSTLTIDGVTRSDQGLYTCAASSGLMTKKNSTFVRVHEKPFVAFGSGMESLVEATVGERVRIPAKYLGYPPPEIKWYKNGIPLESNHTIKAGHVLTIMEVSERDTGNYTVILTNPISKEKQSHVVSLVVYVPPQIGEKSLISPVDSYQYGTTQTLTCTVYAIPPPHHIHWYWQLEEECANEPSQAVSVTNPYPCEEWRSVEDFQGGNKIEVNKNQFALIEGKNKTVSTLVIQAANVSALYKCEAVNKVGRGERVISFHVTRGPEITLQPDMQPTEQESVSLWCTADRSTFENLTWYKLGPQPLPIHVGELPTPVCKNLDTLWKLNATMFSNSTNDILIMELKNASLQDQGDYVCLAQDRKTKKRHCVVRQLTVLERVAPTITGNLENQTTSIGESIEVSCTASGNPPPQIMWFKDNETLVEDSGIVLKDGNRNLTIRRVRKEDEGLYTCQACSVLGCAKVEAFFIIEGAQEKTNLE
# ASSAY_COMMENT: -; KD, B
# pKd is unitless: minus log10 of the molar concentration; print number only

| BINDER | METRIC | RECORDED_MEASUREMENT |
| --- | --- | --- |
| VCWEDSWGGEVCFGGGK [VCWEDSWGGEVCFGGGK (SEQ ID NO: 368)] | pKd | 6.04 |
| GDSRVCWEDSWGGEVCFGGGK [GDSRVCWEDSWGGEVCFGGGK (SEQ ID NO: 369)] | pKd | 5.89 |

# return recorded pKd for input SRVCWEDSWGGEVCFRYGGGGK [SRVCWEDSWGGEVCFRYGGGGK (SEQ ID NO: 371)]
7.46
